These measurements were taken from ChEMBL document CHEMBL4145453.

protocol summary: Solubility of the compound in pH 7.4 PBS buffer at 300 uM after 24 hrs by HPLC-ESI-MS analysis
Assay type: physicochemical
attribute measured: solubility at 24 h, 300 µM (µM)
The response must be a number in µM with no trailing unit.

stdin: For C[C@H](CCC(=O)O)[C@H]1CC[C@H]2[C@@H]3[C@H](O)C[C@@H]4C[C@H](O)CC[C@]4(C)[C@H]3CC[C@]12C [CHENODIOL] , what is its reported solubility at 24 h, 300 µM?
stdout: 282

###

protocol summary: Octanol-HCl distribution coefficient, log P of the compound at pH 1 at 1 uM after 24 hrs by shake flask method
Type: physicochemical
attribute measured: logD at 24 h, 1 µM

stdin: Need logD at 24 h, 1 µM of `C[C@H](CCC(=O)O)[C@H]1CC[C@H]2[C@@H]3[C@H](O)C[C@@H]4C[C@H](O)CC[C@]4(C)[C@H]3CC[C@]12C` , thanks.
stdout: 2.5

###

target system: albumin (Bos taurus, UniProt P02769)
Sequence (P02769 whole entry): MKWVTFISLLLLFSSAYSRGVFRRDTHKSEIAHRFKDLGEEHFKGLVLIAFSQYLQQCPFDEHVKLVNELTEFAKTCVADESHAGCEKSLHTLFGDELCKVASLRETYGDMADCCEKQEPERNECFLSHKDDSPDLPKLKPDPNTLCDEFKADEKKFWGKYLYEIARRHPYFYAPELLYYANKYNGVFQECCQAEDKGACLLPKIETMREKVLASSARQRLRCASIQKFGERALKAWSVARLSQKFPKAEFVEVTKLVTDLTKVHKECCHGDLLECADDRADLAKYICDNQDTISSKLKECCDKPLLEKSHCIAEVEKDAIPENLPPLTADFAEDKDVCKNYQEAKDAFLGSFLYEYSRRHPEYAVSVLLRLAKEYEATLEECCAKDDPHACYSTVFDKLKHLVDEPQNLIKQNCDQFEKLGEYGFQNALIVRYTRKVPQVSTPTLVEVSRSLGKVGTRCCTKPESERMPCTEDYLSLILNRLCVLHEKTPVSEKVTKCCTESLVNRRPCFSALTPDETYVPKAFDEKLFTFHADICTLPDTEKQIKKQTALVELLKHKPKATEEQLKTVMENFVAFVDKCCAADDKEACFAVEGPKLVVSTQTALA
protocol summary: Binding affinity to bovine serum albumin at 10 uM after 24 hrs by equilibrium dialysis method
Type: ADME
conditions: cattle, read-out: PB (converted)
attribute measured: fraction unbound at 24 h, 10 µM
The reply should be a number, written without any unit.

stdin: Request body: readout fraction unbound at 24 h, 10 µM, system albumin (Bos taurus, UniProt P02769), query `C[C@H](CCC(=O)O)[C@H]1CC[C@H]2[C@@H]3[C@H](O)C[C@@H]4C[C@H](O)CC[C@]4(C)[C@H]3CC[C@]12C` . Return the value.
stdout: 0.015

###

target system: UniProt Q96RI1
Sequence (Q96RI1 whole entry, the tested form may be a part): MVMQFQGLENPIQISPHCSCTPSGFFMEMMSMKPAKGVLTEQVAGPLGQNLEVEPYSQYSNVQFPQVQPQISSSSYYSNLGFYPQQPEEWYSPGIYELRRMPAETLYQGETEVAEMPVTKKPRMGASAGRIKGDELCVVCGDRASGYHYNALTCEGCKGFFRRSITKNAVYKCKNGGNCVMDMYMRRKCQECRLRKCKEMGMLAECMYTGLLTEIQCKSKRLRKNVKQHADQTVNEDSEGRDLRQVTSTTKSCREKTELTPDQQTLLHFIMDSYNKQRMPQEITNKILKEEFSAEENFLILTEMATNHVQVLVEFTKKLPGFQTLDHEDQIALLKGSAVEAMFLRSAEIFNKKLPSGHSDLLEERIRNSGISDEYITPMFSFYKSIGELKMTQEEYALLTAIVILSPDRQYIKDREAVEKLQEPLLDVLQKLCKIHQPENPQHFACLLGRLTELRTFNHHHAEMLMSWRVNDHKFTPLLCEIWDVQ
protocol summary: Agonist activity at GST-tagged FXR-LBD (unknown origin) assessed as biotin-labeled SRC-1 recruitment after 30 mins by Alpha Screen assay
attribute measured: pEC50
Scale explanation: pEC50 corresponds to minus log10 of a concentration expressed in moles per litre.

stdin: Please look up its pEC50: `C[C@H](CCC(=O)O)[C@H]1CC[C@H]2[C@@H]3CC[C@@H]4C[C@H](O)CC[C@]4(C)[C@H]3C[C@H](O)[C@]12C`
stdout: 4.35

###

protocol summary: Solubility of the compound in pH 1 HCl solution at 300 uM after 24 hrs by HPLC-ESI-MS analysis
Format: physicochemical
attribute measured: solubility at 24 h, 300 µM

stdin: // returns reported solubility at 24 h, 300 µM for input `C[C@H](CCC(=O)O)[C@H]1CC[C@H]2[C@@H]3[C@H](O)C[C@@H]4C[C@H](O)CC[C@]4(C)[C@H]3CC[C@]12C`
stdout: 33 µM
